Target: LNX1_2, Q8TBB1
Sequence (Q8TBB1 371-470): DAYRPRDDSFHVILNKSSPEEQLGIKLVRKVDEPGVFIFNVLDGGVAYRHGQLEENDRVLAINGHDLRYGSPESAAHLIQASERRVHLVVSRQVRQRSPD
Assay: holdup assay
Set-up: key: below the threshold = too weak to quantify, mostly under pKd 3.1 to 4
Conditions: plain residues with an end cap or a label only (N-terminal biotin on a linker: ttds)
measurement name: pKd

binder	assay result
PFRSRSPSEV [GPR6, P46095]	below the threshold
SSIDLWETAL [SLC15A5, A6NIM6]	below the threshold
GARVSKETPL [MAPK12, P53778]	below the threshold

Reference for the values: paper PMC9482650
